Just for reference, patent US8906913B2 is where these values come from.

Recorded MIC, one value per entry.
# Test system: Staphylococcus aureus ATCC 29213 MSSA (Methicillin sensitive)
# assay-details: In-vitro antibacterial activity, broth microdilution MIC
# Assay type: cell-based
# condition-description: Table 7, S. aureus MSSA, broth microdilution, 35±2° C., 16-20 h, read-out: MIC ATCC 29213
Could you give me the number in µg/mL? Just the number is fine.

Reference set, count: 5
Which value of MIC has been reported for CC(=O)NC[C@H]1CN(c2ccc(C34CC3CN(C(C)=O)C4)cc2)C(=O)O1 (stereo partly drawn) [drawing 482] in the records?
2

Now try CC(=O)N1CC2CC2(c2ccc(N3C[C@H](Cn4ccnn4)OC3=O)cc2)C1 (stereo partly drawn) .
1

And what about the compound CC(=O)NC[C@H]1CN(c2ccc(C34CC3CN(C(=O)N(C)C)C4)cc2)C(=O)O1 (stereo partly drawn) ?
4

Same question for COC(=O)N1CC2CC2(c2ccc(N3C[C@H](CNC(C)=O)OC3=O)cc2)C1 (stereo partly drawn) please.
2

Then what about the compound CC(=O)NC[C@H]1CN(c2ccc(C34CC3CN(C(=O)CO)C4)cc2)C(=O)O1 (stereo partly drawn) ?
0.5

More entries:
So what does the record say about MIC for CC(=O)NC[C@H]1CN(c2ccc(C34CC3CN(c3ccc(F)nc3)C4)cc2)C(=O)O1 (stereo partly drawn) ?
1

Now the same for COC(=O)NC[C@H]1CN(c2ccc(C34CC3CN(C(C)=O)C4)cc2)C(=O)O1 (stereo partly drawn)
2

Entry to check: CC(=O)NC[C@H]1CN(c2ccc(C34CC3CN(c3nc5ccccc5s3)C4)cc2)C(=O)O1 (stereo partly drawn)
1

Next: CC(=O)NC[C@H]1CN(c2ccc(C34CC3CN(C(=O)c3cccnc3)C4)cc2)C(=O)O1 (stereo partly drawn)
2

###

# Test system: Staphylococcus aureus ATCC 29213 MSSA (Methicillin sensitive)
# assay-details: In-vitro antibacterial activity, broth microdilution MIC
# Type: cell-based
# condition-description: Table 7, S. aureus MSSA, broth microdilution, 35±2° C., 16-20 h, read-out: MIC ATCC 29213
assay-readout: MIC (mg/L)
Express it in mg/L; write the number only.

Sample answers from the record:
Look up MIC for this compound: CC(=O)NC[C@H]1CN(c2ccc(C34CC3CN(S(C)(=O)=O)C4)cc2)C(=O)O1 (some centres unmarked)
2

Now consider CC(=O)NC[C@H]1CN(c2ccc(C34CC3CN(C(=O)c3cn5cccnc5n3)C4)cc2)C(=O)O1 (some centres unmarked) .
2

Similarly, CC(=O)NCC(=O)N1CC2CC2(c2ccc(N3C[C@H](CNC(C)=O)OC3=O)cc2)C1 (some centres unmarked) ?
4

Repeat for the following compound: CCOC(=O)OCC(=O)N1CC2CC2(c2ccc(N3C[C@H](CNC(C)=O)OC3=O)cc2)C1 (some centres unmarked)
2

And CC(=O)NC[C@H]1CN(c2ccc(C34CC3CN(C(=O)OC(C)C)C4)cc2)C(=O)O1 (some centres unmarked) ?
2

Also CC(=O)NC[C@H]1CN(c2ccc(C34CC3CN(Cc3cccnc3)C4)cc2)C(=O)O1 (some centres unmarked) ?
4

Also, COC(=O)NC[C@H]1CN(c2ccc(C34CC3CN(C(=O)OC)C4)cc2)C(=O)O1 (some centres unmarked) please.
1

Next:
What measured MIC goes with CC(=O)NC[C@H]1CN(c2ccc(C34CC3CN(C#N)C4)cc2)C(=O)O1 (some centres unmarked) ?
0.5
